Target: Isocitrate dehydrogenase [NADP] cytoplasmic (Homo sapiens) (UniProt O75874)
Sequence (O75874 whole entry R132H, change not shown): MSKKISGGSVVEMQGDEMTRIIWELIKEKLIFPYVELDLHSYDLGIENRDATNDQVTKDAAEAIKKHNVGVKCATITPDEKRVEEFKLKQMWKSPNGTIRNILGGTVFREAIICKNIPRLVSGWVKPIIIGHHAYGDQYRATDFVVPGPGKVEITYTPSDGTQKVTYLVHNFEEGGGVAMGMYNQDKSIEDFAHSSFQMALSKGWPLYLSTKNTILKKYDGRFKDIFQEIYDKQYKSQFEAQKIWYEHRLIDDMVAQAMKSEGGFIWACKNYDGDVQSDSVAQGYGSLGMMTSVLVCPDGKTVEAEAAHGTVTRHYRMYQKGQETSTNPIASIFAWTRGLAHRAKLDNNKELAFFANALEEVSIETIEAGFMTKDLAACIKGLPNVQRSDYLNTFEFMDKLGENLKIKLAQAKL
Assay: qHTS for Inhibitors of mutant isocitrate dehydrogenase 1 (IDH1): qHTS; further: nearly all actives have a fitted effect of over 65% in size
Settings: IDH1-R132H enzyme, NADPH consumption, diaphorase/resazurin fluorescence; series mostly up to 76.6 µM
Screen size: about 390,000 compounds; about 360 (0.092%) were called active. The call rests on the fitted dose curve; in most records, active means well fitted inhibition curve with a large enough effect; inconclusive means small, poorly fitted or top-dose-only effect; inactive means no such curve, though single readings can be large or run the other way. The sample as a whole holds a higher share of actives than the screen did.
Field 'call' accepts YES for active, NO for inactive

Give the logged outcome of this assay for the following molecule: CC(C)(C)c1ccc(S(=O)(=O)Nc2ccc(O)c(Sc3nc4ccccc4s3)c2)cc1 YES

Give the logged outcome of this assay for the following molecule: O=C(Nc1ccc(Cl)cc1C(=O)c1ccccc1)c1cc(Cl)cc(Cl)c1 NO

Give the logged outcome of this assay for the following molecule: Cn1c(O)c(C=NCCN2CCNCC2)c(=O)n(C)c1=O NO

Give the logged outcome of this assay for the following molecule: CCOCCc1c(O)[nH]c(=S)[nH]c1=O NO
